These measurements were taken from ChEMBL document CHEMBL3832761.

tested on: Mycobacterium tuberculosis; experiment: AntiMycobacterium tuberculosis activity 1-week 7H9/glucose/BSA/Tx MIC (uM); type: functional; details: 168 h
readout name: MIC (µM)
Only the number, expressed in µM, is required.

Problem: Given CCCCc1ccc(C(=O)Nc2nccc3ccccc23)nc1 , state its recorded MIC.
Result: 6.25

Problem: Sample CCC(Sc1nc2ccccc2o1)C(=O)Nc1nccs1 (stereo unspecified) — what was its MIC?
Result: 9.4

Problem: Please give the measured MIC for this compound: COc1ccc(Nc2ccccc2NC(=O)c2ccc(O)nc2)cc1
Result: 37

Problem: For the compound CCc1nc2ccc(Cl)cn2c1C(=O)NCc1ccc(N2CCC(c3ccc(OC(F)(F)F)cc3)CC2)cc1 [TELACEBEC] , what MIC is on record?
Result: 0.1
